Each record here notes measured % Intact Protein at 10 min.
Assay: SGF digest of 168 nutritive polypeptide library, intact protein by LC-MS/MS
Type: in vitro ADME
Details: 168 nutritive polypeptide library SGF digest, LC-MS/MS spectral counts
Reply with just the number (in %).

Some molecules with recorded % Intact Protein at 10 min:
molecule	unit string	% Intact Protein at 10 min
SEQID-00647: protein of the 168 nutritive polypeptide library (protein, Arthrospira platensis C1, protein of the 168 nutritive polypeptide library) MALSKIEEARQLNDDDLSEQILEIKKQLANLRLLKATGRLEKPHEIRHTRHRLSQLLTVERERQLPNQSPA	%	12
SEQID-00642: protein of the 168 nutritive polypeptide library (protein, listed as Saccharomyces cerevisiae, source: /note="strain ATCC 204508 / S288c", protein of the 168 nutritive polypeptide library) MADQENSPLHTVGFDARFPQQNQTKHCWQSYVDYHKCVNMKGEDFAPCKVFWKTYNALCPLDWIEKWDDQREKGIFAGDINSD	%	75

Now let's try a different one.
Ask: Need % Intact Protein at 10 min, item SEQID-00541: protein of the 168 nutritive polypeptide library (protein, listed as Agaricus bisporus, source: /note="var. bisporus"; source: /note="strain H97 / ATCC MYA-4626 / FGSC 10389", protein of the 168 nutritive polypeptide library) MVRISVLNDCLKSICNASRRGKRQVIVRPSSKVVVKFLSVMQRHGYIGEFEIIDDHRGGKIIVQLNGRLNKTGVISPRFNVQHNRIEQWINYLLPSRGIGIIVLTTSSGILDHEEARRKNVGGKLLGYVY
Reply: 0
